# measurement_parameters: in acetone, 288.15 K

[
  {
    "compound_structure": "Cc1cnc(C(=O)O)c[n+]1[O-]",
    "solubility (mole fraction)": 0.00176
  }
]

---

# measurement_parameters: in acetonitrile, 308.15 K

[
  {
    "compound_structure": "Cc1cnc(C(=O)O)c[n+]1[O-]",
    "solubility (mole fraction)": 0.00172
  }
]
